Task for the reader: assign each of the following compounds its reported Topo2β% inhibition.
- Study target: human DNA topoisomerase II beta (Topo2β) (Homo sapiens)
- Sequence (Q02880 whole entry): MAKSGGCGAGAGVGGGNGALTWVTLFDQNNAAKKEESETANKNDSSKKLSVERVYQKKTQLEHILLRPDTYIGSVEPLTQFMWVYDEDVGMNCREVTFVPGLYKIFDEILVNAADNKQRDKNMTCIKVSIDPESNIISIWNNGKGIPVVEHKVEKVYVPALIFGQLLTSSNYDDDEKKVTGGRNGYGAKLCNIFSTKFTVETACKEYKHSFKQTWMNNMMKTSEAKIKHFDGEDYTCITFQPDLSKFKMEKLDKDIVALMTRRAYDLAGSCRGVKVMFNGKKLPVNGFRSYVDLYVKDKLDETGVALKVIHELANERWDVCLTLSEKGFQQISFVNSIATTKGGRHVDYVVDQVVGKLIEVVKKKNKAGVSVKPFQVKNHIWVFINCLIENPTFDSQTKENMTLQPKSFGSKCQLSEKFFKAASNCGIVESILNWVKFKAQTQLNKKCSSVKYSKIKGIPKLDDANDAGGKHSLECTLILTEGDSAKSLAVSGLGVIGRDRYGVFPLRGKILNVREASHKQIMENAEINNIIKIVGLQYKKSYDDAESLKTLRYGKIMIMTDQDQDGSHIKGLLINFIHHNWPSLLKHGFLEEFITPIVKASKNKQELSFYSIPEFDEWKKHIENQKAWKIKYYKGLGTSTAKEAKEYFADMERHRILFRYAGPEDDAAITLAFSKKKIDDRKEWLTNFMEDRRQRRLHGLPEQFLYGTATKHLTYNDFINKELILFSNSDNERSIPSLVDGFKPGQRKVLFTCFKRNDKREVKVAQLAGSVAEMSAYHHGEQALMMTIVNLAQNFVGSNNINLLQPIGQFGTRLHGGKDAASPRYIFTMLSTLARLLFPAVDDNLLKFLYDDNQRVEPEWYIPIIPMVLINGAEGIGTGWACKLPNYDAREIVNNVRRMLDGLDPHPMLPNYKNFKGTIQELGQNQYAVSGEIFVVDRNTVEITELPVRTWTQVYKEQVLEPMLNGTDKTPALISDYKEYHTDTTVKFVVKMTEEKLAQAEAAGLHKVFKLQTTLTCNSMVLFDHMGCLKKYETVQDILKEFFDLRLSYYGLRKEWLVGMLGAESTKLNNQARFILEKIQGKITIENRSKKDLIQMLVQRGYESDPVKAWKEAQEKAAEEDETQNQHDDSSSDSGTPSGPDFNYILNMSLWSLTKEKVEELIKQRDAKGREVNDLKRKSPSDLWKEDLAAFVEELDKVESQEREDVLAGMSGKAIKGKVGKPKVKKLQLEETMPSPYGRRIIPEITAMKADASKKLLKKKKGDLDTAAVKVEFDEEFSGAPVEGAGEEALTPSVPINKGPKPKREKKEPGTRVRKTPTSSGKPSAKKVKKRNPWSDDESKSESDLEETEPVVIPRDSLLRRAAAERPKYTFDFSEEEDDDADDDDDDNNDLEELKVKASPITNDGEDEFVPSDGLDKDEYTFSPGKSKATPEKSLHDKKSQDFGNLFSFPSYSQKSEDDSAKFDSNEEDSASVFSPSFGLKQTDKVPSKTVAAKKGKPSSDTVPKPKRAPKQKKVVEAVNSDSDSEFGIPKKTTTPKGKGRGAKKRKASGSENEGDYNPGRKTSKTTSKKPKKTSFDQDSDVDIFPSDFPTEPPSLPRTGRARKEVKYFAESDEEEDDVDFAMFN
- Assay comment: Topo2β polymerase inhibition assay (ELISA), Hep3B
- Type: cell-based
- Design: concentration or dose not given beside the values
- Test parameters: against Hep3B cell line
One number for each entry, in %.

Examples from the recorded data:
{"Compound": "COc1ccc(C=NNC(=O)c2cn3c4c(c(N5CCN(C)CC5)c(F)cc4c2=O)OCC3C)cc1 (stereo not shown)", "Study target": "human DNA topoisomerase II beta (Topo2β) (Homo sapiens)", "Assay endpoint": "Topo2β% inhibition", "Result number": 81.33}
{"Compound": "CC1COc2c(N3CCN(C)CC3)c(F)cc3c(=O)c(C(=O)N4NC(=O)CC4=N)cn1c23 (stereo not shown)", "Study target": "human DNA topoisomerase II beta (Topo2β) (Homo sapiens)", "Assay endpoint": "Topo2β% inhibition", "Result number": 71.92}
{"Compound": "CCOC(=O)CC(C)=NNC(=O)c1cn2c3c(c(N4CCN(C)CC4)c(F)cc3c1=O)OCC2C (stereo not shown)", "Study target": "human DNA topoisomerase II beta (Topo2β) (Homo sapiens)", "Assay endpoint": "Topo2β% inhibition", "Result number": 83.73}
{"Compound": "CC1COc2c(N3CCN(C)CC3)c(F)cc3c(=O)c(C(=O)N4CCN(C)CC4)cn1c23 (stereo not shown) [Compound 13c]", "Study target": "human DNA topoisomerase II beta (Topo2β) (Homo sapiens)", "Assay endpoint": "Topo2β% inhibition", "Result number": 70.93}
{"Compound": "CC1COc2c(N3CCN(C)CC3)c(F)cc3c(=O)c(C(=O)N4CCCCC4)cn1c23 (stereo not shown) [Compound 13a]", "Study target": "human DNA topoisomerase II beta (Topo2β) (Homo sapiens)", "Assay endpoint": "Topo2β% inhibition", "Result number": 68.77}
{"Compound": "C[C@H]1COc2c(N3CCN(C)CC3)c(F)cc3c(=O)c(C(=O)O)cn1c23 [Levofloxacin, reference compound]", "Study target": "human DNA topoisomerase II beta (Topo2β) (Homo sapiens)", "Assay endpoint": "Topo2β% inhibition", "Result number": 73.59}

Now turn to the next compound.
Task: Endpoint output: Topo2β% inhibition of COc1cc([C@@H]2c3cc4c(cc3[C@@H](O[C@@H]3O[C@@H]5CO[C@@H](C)O[C@H]5[C@H](O)[C@H]3O)[C@H]3COC(=O)[C@H]23)OCO4)cc(OC)c1O [Etoposide, reference compound] . Value?
Result: 73.22
